// provenance: ChEMBL document CHEMBL1156779

# METHOD_DESCRIPTION: Displacement of HABA from avidin at 31 uM
MEASURE_NAME: inhibition (%)
Numbers only, in %.

MOLECULE	UNIT_TEXT	inhibition
O=C(O)CN1CCN(CC(=O)O)CCN(CC(=O)NCCCN(CCCNC(=O)CN2CCN(CC(=O)O)CCN(CC(=O)O)CCN(CC(=O)O)CC2)CC(=O)Nc2ccc(C(=O)NCCCCC(NC(=O)CCCC[C@@H]3SC[C@@H]4NC(=O)N[C@@H]43)C(=O)O)cc2)CCN(CC(=O)O)CC1 (stereo not given in full)	%	97

Provide inhibition values for the following items, in order.
1. O=C(O)CN1CCN(CC(=O)O)CCN(CC(=O)NCCCN(CCCNC(=O)CN2CCN(CC(=O)O)CCN(CC(=O)O)CCN(CC(=O)O)CC2)CC(=O)NCCCCC(NC(=O)CCCC[C@@H]2SC[C@@H]3NC(=O)N[C@@H]32)C(=O)O)CCN(CC(=O)O)CC1 (stereo not given in full)
2. O=C(O)CCCC[C@@H]1SC[C@@H]2NC(=O)N[C@@H]21
3. O=C(O)CN1CCN(CC(=O)O)CCN(CC(=O)NCCCCCCN(CCCCCCNC(=O)CN2CCN(CC(=O)O)CCN(CC(=O)O)CCN(CC(=O)O)CC2)CC(=O)NCCCCCCNCCCCC[C@@H]2SC[C@@H]3NC(=O)N[C@@H]32)CCN(CC(=O)O)CC1
4. O=C(O)CN1CCN(CC(=O)O)CCN(CC(=O)NCCCN(CCCNC(=O)CN2CCN(CC(=O)O)CCN(CC(=O)O)CCN(CC(=O)O)CC2)CC(=O)NCCCCCCNCCCCC[C@@H]2SC[C@@H]3NC(=O)N[C@@H]32)CCN(CC(=O)O)CC1

RESULT:
[95, 100, 64, 66]
